# TESTED_ON: T1, hu-MCSP(D3 domain)-avi-his (human, UniProt Q6UVK1 1582-2224)
# T1 construct: Recombinant D3 domain with avi and his tags; also called human MCSP(D3 domain)-avi-his; Human MCSP D3
# T1 sequence: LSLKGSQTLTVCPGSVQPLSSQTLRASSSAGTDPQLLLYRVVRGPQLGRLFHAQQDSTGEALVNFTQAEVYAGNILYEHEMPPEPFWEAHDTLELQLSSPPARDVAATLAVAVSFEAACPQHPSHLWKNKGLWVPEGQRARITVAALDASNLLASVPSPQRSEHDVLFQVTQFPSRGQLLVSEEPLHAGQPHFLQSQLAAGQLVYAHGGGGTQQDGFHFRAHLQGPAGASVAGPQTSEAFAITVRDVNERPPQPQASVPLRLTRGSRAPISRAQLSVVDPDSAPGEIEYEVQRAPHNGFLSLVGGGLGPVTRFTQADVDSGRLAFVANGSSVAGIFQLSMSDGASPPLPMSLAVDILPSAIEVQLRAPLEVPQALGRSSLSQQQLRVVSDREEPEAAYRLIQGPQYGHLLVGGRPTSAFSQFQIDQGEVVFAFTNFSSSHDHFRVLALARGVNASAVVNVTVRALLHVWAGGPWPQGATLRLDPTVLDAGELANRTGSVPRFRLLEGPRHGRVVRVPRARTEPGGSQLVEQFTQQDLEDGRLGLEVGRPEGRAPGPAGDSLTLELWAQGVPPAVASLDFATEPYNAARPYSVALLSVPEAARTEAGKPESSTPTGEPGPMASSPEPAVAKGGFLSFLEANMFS
# ASSAY_NOTES: ratio of ProteOn IgG KD, parent M4-3/ML2 against variant
Listed binders paired with reported Fold increase over parent
Answer in fold, number only, no unit symbol.

Example cases with answers are listed next.
BINDER	Fold increase over parent / fold
M4-3(A7)/ML2(E10) IgG (antibody, V domains shown, Human IgG1) VH: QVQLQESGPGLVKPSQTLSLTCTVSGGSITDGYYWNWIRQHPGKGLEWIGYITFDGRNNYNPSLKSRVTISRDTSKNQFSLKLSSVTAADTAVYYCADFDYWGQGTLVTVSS VL: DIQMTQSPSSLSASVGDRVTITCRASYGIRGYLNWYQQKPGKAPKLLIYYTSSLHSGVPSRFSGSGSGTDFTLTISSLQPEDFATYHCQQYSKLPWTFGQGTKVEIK	6.7
M4-3(C1)/ML2 IgG (antibody, V domains shown, Human IgG1; copies: 2 + 2) VH: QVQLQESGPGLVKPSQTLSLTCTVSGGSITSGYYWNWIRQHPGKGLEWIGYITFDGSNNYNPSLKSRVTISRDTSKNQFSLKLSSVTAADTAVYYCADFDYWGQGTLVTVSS VL: DIQMTQSPSSLSASVGDRVTITCRASQGIRNYLNWYQQKPGKAPKLLIYYTSSLHSGVPSRFSGSGSGTDFTLTISSLQPEDFATYYCQQYSKLPWTFGQGTKVEIKR	2.2

Next, consider the following binder.
QUERY: Indicate its recorded Fold increase over parent; the binder in question is M4-3(A7)/ML2 IgG (antibody, V domains shown, Human IgG1) VH: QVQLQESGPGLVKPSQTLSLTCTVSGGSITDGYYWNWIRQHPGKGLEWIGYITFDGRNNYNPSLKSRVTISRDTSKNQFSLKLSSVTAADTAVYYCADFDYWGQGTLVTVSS VL: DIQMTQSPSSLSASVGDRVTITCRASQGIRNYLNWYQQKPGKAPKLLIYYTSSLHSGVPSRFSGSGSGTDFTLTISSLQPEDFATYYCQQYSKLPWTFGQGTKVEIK
RESULT: 2.5

This collection of values is drawn from patent US20140242080A1.
